# EXPERIMENTAL_TARGET: GST-PSD95 PDZ domain 1 (human)
# PROCEDURE_TEXT: G assay
TEST_READOUT: Average OD
The number alone won't do; follow it with the unit.

[
  {
    "BINDER": "LGYSIPSRSGASGLDKRDYV (modifications not checked) [claudin 9 PL peptide]",
    "VALUE_REPORTED": "0.82 OD"
  },
  {
    "BINDER": "SSKSKSSEESQTFFGLYKL (modifications not checked) [Fas Ligand PL peptide]",
    "VALUE_REPORTED": "1.23 OD"
  },
  {
    "BINDER": "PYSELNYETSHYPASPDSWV (modifications not checked) [catenin-delta 2 PL peptide]",
    "VALUE_REPORTED": "1.18 OD"
  },
  {
    "BINDER": "SSPDSSYQGKGFVMSRAMYV (modifications not checked) [Nectin 2 PL peptide]",
    "VALUE_REPORTED": "1.01 OD"
  },
  {
    "BINDER": "DGGARTEDEVQSYPSKHDYV (modifications not checked)",
    "VALUE_REPORTED": "1.25 OD"
  },
  {
    "BINDER": "TGSALQAWRHTSRQATESTV (modifications not checked)",
    "VALUE_REPORTED": "3.86 OD"
  },
  {
    "BINDER": "VDPNSPAAKKKYVSYNNLVI (modifications not checked) [GLUR7 (metabotropic glutamate receptor) PL peptide]",
    "VALUE_REPORTED": "0.85 OD"
  }
]

Now turn to the next binder.
(Q) Reported Average OD, binder SYPTPRPYPKPAPSSGKDYV (modifications not checked) [claudin 1 PL peptide] : ____
(A) 0.95 OD

Hello, the source for this data is patent US20110039758A1, in case you need it.
